Test: qHTS for Inhibitors of the vitamin D receptor (VDR): Hit Validation using a Texas Red Assay (AID 602201); also: potency is read from the fitted curve at half-maximal effect
Conditions: VDR coregulator binding, Texas Red fluorescence polarization, agonist-bound VDR ligand-binding domain; series mostly up to 57.1 µM
Results filed as inconclusive are left out. The source made the active and inactive calls. Calls follow the shape of the dose curve; as a rule, active = well fitted curve in the direction sought with a large enough effect; inconclusive = small, poorly fitted or top-dose-only effect, or another doubt; inactive = no such curve, though single readings can be large or run the other way.
Quantity Name: Potency

Some compounds with recorded Potency:
{"Given Smiles": "CCSc1nnc(NC(=O)c2nc(S(=O)(=O)Cc3ccc(F)cc3)ncc2Cl)s1", "Potency": "3.16 µM (active)"}
{"Given Smiles": "c1ccc(-c2ccc(C3=Nn4c(Cn5nnc6ccccc65)nnc4SC3)cc2)cc1", "Potency": "22.4 µM (active)"}
{"Given Smiles": "C#CCOc1c(Cl)cc(/C=C2/C(=O)ON=C2C)cc1OCC", "Potency": "15.8 µM (active)"}
{"Given Smiles": "COc1ccc(OC)c2c1C(=O)C(Cl)=C(Cl)C2=O", "Potency": "7.08 µM (active)"}
{"Given Smiles": "COc1ccc(C2=CC(=O)N(Nc3ccccc3)C2=O)cc1", "Potency": "10 µM (active)"}

// for each compound below, give its Potency
1. COc1ccc(/C=C2/C(=O)N(c3ccccc3)N=C2C)cc1Br
2. CC(=O)C1=C(c2ccc(Br)cc2)C(=O)c2ccccc2C1=O
3. O=C(Nc1ccc(F)cc1)c1nc(S(=O)(=O)Cc2ccccc2)ncc1Cl
4. Oc1ccc(C(=S)N2CCN(c3cccc(Cl)c3)CC2)cc1
5. NC(=O)COc1ccc(/C=C2\C(=O)ON=C2c2ccccc2)cc1

1: inactive; 2: 3.55 µM (active); 3: 5.62 µM (active); 4: inactive; 5: 25.1 µM (active)

Determine from records and report Potency for `CCOc1ccc(/C=C/C(=O)c2c(O)cc(C)oc2=O)cc1`
25.1 µM (active)

###

Molecular target: Cytochrome P450 3A4 (Homo sapiens) (UniProt P08684)
Sequence (P08684 whole entry, looked up): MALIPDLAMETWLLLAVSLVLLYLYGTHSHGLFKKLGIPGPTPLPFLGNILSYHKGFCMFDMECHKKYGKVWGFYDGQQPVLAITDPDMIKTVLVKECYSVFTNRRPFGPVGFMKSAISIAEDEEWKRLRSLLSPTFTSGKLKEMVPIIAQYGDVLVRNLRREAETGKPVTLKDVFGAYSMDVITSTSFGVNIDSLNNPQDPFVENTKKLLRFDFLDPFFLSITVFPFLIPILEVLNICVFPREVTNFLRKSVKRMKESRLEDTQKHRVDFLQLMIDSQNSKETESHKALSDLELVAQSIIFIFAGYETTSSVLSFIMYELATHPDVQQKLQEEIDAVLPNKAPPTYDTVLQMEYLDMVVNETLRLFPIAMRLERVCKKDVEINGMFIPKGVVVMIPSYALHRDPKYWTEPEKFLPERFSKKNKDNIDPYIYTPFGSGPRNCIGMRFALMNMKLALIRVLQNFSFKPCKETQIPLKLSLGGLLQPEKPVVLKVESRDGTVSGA
Assay: qHTS Assay for Inhibitors and Substrates of Cytochrome P450 3A4 (AID 884); also: nearly all actives have a fitted effect of over 50% in size
Settings: recombinant CYP3A4, Luciferin-PPXE luminescence; series mostly up to 57.1 µM
Results filed as inconclusive are left out. Activity calls are given as the source filed them. The call rests on the fitted dose curve; in most records, active means well fitted inhibition curve with a large enough effect; inconclusive means small, poorly fitted or top-dose-only effect; inactive means no such curve, though single readings can be large or run the other way.
Thanks in advance; please answer with one of these: active, inactive

Below are worked cases with known answers.
{"Molecule": "OB(O)c1ccc(Br)cc1", "Qualitative Label": "inactive"}
{"Molecule": "Cc1csc(B(O)O)c1", "Qualitative Label": "inactive"}
{"Molecule": "COC(=O)c1ccc(C(NC(=O)OCc2ccccc2)/C(=C/[C@@H](C)C(=O)N(C)Cc2ccccc2)c2cccnc2)cc1 (some centres undefined)", "Qualitative Label": "active"}
{"Molecule": "Cn1c(=O)c(C(=O)COC(=O)c2cc(C(F)(F)F)nc3c(C(F)(F)F)cccc23)c(N)n(CC2CC2)c1=O", "Qualitative Label": "active"}
{"Molecule": "O=C(N[C@@H](Cc1ccccc1)C(=O)O)c1ccccc1", "Qualitative Label": "inactive"}
{"Molecule": "FC(F)(F)c1ccc(CN2C[C@@H]3C(c4ccccc4)C4(c5cccnc5)CC3(C4)[C@H]2c2ccccc2)cc1 (some centres undefined)", "Qualitative Label": "active"}
{"Molecule": "CCC1=C(OC(=O)N(CC)CC)N2C(=O)OC(=NCc3ccccc3)[C@]2(C)[C@H]2C1=CC[C@H]1C(=O)N(CC(=O)OC)C(=O)[C@H]12", "Qualitative Label": "active"}
{"Molecule": "CC(=O)OC1CCC2(C)C(CCC3(C)C2C(=O)C=C2C4CC(C)(C(=O)OCCN5CCCCC5)CCC4(C)CCC23C)C1(C)C (centres undefined)", "Qualitative Label": "inactive"}

Then this molecule:
I'd appreciate the recorded outcome for CN(C)c1ccc(CNC(=O)C2(C)C=CCN2C(=O)c2ccccc2)cc1 (centres undefined) from this test.
active
